Data origin: PubChem BioAssay (NCI)

- System: SNB-19 CNS
- assay_summary: NCI tumour cell line growth inhibition, 48 h
We begin with a simple list: items and their reported TGI.

C/C=C1/CN2CCC34C(=C(C(=O)OC)C1CC23)Nc1ccc(O)cc14 (stereo unspecified)	> 100 µM
CN1C(=O)N(C)C2(CCN(CC(CC3OCCO3)c3ccc(F)cc3)CC2)C1=O (stereo unspecified)	> 100 µM
N#CCCN(CCC#N)c1ccc(/C=C(/NC(=O)c2cc([N+](=O)[O-])ccc2Cl)C(=O)N=[N+]=[N-])cc1	> 100 µM

Hi! What's the reported TGI for Cc1ccc(S(=O)(=O)NC(=O)Nc2c(S(N)(=O)=O)cc(S(N)(=O)=O)c(Cl)c2Cl)cc1 on SNB-19 CNS? > 100 µM
